Every entry's value here was drawn from patent US8236789B2.

Target: human 11β-HSD2 (Homo sapiens, UniProt P80365)
Construct: expressed in transfected cells
Sequence (P80365 whole entry): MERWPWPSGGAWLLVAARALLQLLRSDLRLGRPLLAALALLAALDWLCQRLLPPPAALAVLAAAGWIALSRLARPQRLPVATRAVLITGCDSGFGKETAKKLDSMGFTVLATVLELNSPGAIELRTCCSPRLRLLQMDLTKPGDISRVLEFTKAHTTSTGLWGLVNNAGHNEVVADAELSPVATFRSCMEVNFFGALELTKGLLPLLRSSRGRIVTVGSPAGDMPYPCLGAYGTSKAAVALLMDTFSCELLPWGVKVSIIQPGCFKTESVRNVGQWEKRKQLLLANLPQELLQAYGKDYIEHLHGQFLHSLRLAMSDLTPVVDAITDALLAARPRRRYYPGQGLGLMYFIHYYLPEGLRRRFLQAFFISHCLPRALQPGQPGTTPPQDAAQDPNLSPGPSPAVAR
Experiment: Enzyme inhibitory activity assay, lysate of HEK293 cells stably expressing human 11β-HSD2, cortisol by competitive ELISA
Assay type: biochemical
Conditions: Table 1; cell lysate, 100 nmol/L cortisol, NAD+, 37° C. 1 hour; read-out: in vitro assay (IC50 uM) h HSD2
Each entry below lists one item and its recorded IC50 value.

[
  {
    "Compound": "CC1(C)C(=O)N(C2C3CC4CC(C3)CC2C4)C1C1(c2ccccc2)CC1 (centres unmarked)",
    "IC50": "4.3 µM"
  },
  {
    "Compound": "CC1(C)C(=O)N(C2C3CC4CC(C3)CC2C4)C1c1ccc(F)c(F)c1 (centres unmarked)",
    "IC50": "8.8 µM"
  },
  {
    "Compound": "CC1(C)C(=O)N(C2C3CC4CC(C3)CC2C4)C1c1cccc2c1OCCCC2 (centres unmarked)",
    "IC50": "3 to 30 µM"
  }
]

Ask: Provide only the value of recorded IC50 for COc1ccc(C2N(C3C4CC5CC(C4)CC3C5)C(=O)C2(C)C)c(C)c1 (centres unmarked)
Reply: > 30 µM

Ask: Identify the reported IC50 for the following entry. CC1(C)C(=O)N(C2C3CC4CC(C3)CC2C4)C1c1ccc(Cl)cc1 (centres unmarked)
Reply: 15 µM

Ask: Return IC50 for the following compound: CC1(C)C(=O)N(C2C3CC4CC(C3)CC2C4)C1c1ccc(F)c(Cl)c1 (centres unmarked)
Reply: > 30 µM

Ask: Quick one: give measured IC50 for CC1(C)C(=O)N(C2C3CC4CC(C3)CC2C4)C1c1ccccc1F (centres unmarked)
Reply: 3 to 30 µM

Ask: Please supply the value of reported IC50 for the item CC1(C)C(=O)N(C2C3CC4CC(C3)CC2C4)C1c1ccccc1 (centres unmarked)
Reply: 3 to 30 µM

Ask: Please give measured IC50 of the following entry: CC1(C)C(=O)N(C2C3CC4CC(C3)CC2C4)C1c1ccccc1Cl (centres unmarked)
Reply: 3 to 30 µM

Ask: Please indicate IC50 recorded for CC(C)(C)c1ccc(C2N(C3C4CC5CC(C4)CC3C5)C(=O)C2(C)C)cc1 (centres unmarked)
Reply: 3 to 30 µM

Ask: Look up IC50 of COc1ccccc1C1N(C2C3CC4CC(C3)CC2C4)C(=O)C1(C)C (centres unmarked) and report it.
Reply: 6.7 µM
